Data credit: patent US20220112288A1

measuredTarget: T1, human CD4 on cells (SKW3 cells; human PBMCs) (human, UniProt P01730 26-458)
T1 construct: whole, on cells; SKW3 CD4 knockout cells served as the negative cell line; also called hCD4
assayRemarks: FACS confirmation, supernatant on SKW3 WT cells, anti-human kappa FITC; background gMFI 2500
Listed below: SKW3 WT anti-hu Kappa FITC, gMFI values for each entry.

binder	SKW3 WT anti-hu Kappa FITC, gMFI (gMFI)
75110_13P21A (antibody, IgG1, V domains shown, Tested as non-clonal AlivaMab Mouse Kappa hybridoma supernatant: human variable domains and human kappa, mouse Fc) VH: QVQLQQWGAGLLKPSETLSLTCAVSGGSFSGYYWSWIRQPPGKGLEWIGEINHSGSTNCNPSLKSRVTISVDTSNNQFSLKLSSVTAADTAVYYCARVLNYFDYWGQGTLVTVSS VL: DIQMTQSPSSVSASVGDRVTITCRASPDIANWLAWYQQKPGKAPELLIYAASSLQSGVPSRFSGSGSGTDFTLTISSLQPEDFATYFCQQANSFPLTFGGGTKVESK	7580
75110_14P05A (antibody, V domains shown, Tested as non-clonal AlivaMab Mouse Kappa hybridoma supernatant: human variable domains and human kappa, mouse Fc) VH: EVQLVESGGGLVQPGGSLRLSCAASGFTFSSYDVHWVRQATGKGLEWVSTIGTAGDTYYPGSVKGRFTISRENAKNSLYLQMNSLRAGDTAVYYCARGGFYYYGMDVWGQGTTVTVSS VL: EIVLTQSPGTLSLSPGERATLSCRASQSVSSSYLAWYQQKPGQTPRLLIYGASSRATGIPDRFSGSGSGTDFTLTISRLEPEDFAVFYCQQSGSSPFTFGPGTKVDVK	7520
75110_04G16A (antibody, V domains shown, Tested as non-clonal AlivaMab Mouse Kappa hybridoma supernatant: human variable domains and human kappa, mouse Fc) VH: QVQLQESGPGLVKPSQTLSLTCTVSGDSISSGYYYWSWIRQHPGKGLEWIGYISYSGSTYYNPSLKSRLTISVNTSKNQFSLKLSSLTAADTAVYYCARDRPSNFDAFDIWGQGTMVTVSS VL: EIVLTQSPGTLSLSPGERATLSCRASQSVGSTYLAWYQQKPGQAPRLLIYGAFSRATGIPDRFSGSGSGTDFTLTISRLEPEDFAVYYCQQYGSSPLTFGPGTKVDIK	6830
75110_06D16A (antibody, V domains shown, Tested as non-clonal AlivaMab Mouse Kappa hybridoma supernatant: human variable domains and human kappa, mouse Fc (detected with anti-mouse Fc)) VH: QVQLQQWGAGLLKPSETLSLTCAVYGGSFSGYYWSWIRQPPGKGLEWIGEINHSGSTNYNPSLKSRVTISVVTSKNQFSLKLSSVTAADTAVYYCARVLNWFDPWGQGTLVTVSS VL: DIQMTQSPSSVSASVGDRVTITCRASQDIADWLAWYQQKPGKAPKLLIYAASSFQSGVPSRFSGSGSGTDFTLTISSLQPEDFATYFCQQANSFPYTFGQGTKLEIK	8670
75110_12K21A (antibody, V domains shown, Tested as non-clonal AlivaMab Mouse Kappa hybridoma supernatant: human variable domains and human kappa, mouse Fc) VH: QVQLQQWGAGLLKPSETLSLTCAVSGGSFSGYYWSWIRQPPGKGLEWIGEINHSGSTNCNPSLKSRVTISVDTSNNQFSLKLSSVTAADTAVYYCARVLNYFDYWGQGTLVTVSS VL: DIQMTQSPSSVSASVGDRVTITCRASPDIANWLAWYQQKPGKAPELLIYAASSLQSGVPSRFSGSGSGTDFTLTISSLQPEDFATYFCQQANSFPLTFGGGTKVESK	5620
75110_07B16A (antibody, IgG1, V domains shown, Tested as non-clonal AlivaMab Mouse Kappa hybridoma supernatant: human variable domains and human kappa, mouse Fc) VH: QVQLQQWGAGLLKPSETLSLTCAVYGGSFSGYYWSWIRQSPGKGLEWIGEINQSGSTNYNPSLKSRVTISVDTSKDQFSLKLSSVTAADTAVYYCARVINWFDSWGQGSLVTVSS VL: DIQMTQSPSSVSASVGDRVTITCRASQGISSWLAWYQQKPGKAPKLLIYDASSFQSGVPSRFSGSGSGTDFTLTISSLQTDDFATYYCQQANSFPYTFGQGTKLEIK	7220
75110_01K10A (antibody, V domains shown, Tested as non-clonal AlivaMab Mouse Kappa hybridoma supernatant: human variable domains and human kappa, mouse Fc) VH: EVQLVESGGALVQPGGSLRLSCAASGFTFRNYDMHWVRQATGKGLEWVSTIGTAGDTYYPGSVKGRFTISRENAKNSLYLQMNSLRAGDTAVYYCARGGDYYYGMDVWGQGTTVTVSS VL: EIVLTQSPDTLSLSPGERATLSCRASQSLSSVYLAWYQQKPGQAPRLLIYGASSRATGIPDRFSGTGSGTDFTLTISRLEPEDFAVYYCQQYGSSPFTFGPGTKVDIK	5940
75110_12C19A (antibody, IgG1, V domains shown, Tested as non-clonal AlivaMab Mouse Kappa hybridoma supernatant: human variable domains and human kappa, mouse Fc) VH: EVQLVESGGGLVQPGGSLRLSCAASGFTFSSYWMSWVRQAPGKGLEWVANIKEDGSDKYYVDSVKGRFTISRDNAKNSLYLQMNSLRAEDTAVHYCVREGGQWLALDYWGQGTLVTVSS VL: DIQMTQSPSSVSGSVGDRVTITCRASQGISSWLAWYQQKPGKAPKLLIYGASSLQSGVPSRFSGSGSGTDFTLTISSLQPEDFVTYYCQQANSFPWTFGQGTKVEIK	6850
75110_05K11A (antibody, IgG1, V domains shown, Tested as non-clonal AlivaMab Mouse Kappa hybridoma supernatant: human variable domains and human kappa, mouse Fc) VH: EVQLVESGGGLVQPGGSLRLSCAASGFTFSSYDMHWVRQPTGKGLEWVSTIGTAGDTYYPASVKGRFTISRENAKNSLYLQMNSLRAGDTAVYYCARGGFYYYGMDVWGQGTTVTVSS VL: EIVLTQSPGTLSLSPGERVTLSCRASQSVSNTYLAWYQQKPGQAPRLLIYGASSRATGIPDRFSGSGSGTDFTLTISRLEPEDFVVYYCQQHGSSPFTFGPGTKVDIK	6700
75110_01G11A (antibody, IgG1, V domains shown, Tested as non-clonal AlivaMab Mouse Kappa hybridoma supernatant: human variable domains and human kappa, mouse Fc) VH: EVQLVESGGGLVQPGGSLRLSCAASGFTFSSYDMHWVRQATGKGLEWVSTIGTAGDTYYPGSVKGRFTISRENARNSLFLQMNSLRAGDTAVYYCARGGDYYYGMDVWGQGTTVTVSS VL: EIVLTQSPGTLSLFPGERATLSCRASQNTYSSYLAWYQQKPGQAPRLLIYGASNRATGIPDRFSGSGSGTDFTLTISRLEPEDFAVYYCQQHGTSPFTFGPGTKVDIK	5000
